Source listed as PubChem BioAssay.

# MEASUREMENT NOTES: StAR promoter reporter inhibitors, counter-screen for LRH-1 inverse agonist project, cell-based, luminescence, high throughput (AID 651611)
# CONDITION PARAMETERS: StAR promoter luciferase reporter counterscreen, at 3.6 µM, hits give high values
VALUE KIND: inhibition (%)
Value expressed in %; do not type the unit.

Please review the following examples before continuing.
molecule="CN(CCc1ccccc1)C(=O)c1ccc(NC(=O)Cc2ccc(NC(=O)C3CCCN(C(=O)CCc4ccccc4)C3)cc2)cc1 (centres undefined)" value_kind=inhibition unit_spec=% measured_number=30.9
molecule=CCCN(CC(=O)Nc1ccccc1C)CC(=O)Nc1ccc(Br)cc1F value_kind=inhibition unit_spec=% measured_number=8.48
molecule=CC(=O)N1CCN(c2ccc(Oc3ccc([N+](=O)[O-])c(C(F)(F)F)c3)cc2)CC1 value_kind=inhibition unit_spec=% measured_number=30.3

*Q* Need inhibition of `Cc1onc(-c2ccccc2)c1C(=O)NC(=S)NNC(=O)c1ccccc1O` , thanks.
*A* 70

*Q* Need inhibition of `CC1(C)CC(N2CCCCC2)=CC(=[N+]2CCCCC2)C1` , thanks.
*A* 30.1

*Q* Need inhibition of `COc1cccc(/C=N/Nc2ccc(C(=O)O)cc2)c1O` , thanks.
*A* 68.7

###

# maps each entry to its inhibition
# TARGET OR SYSTEM: Steroidogenic factor 1 (Homo sapiens)
# MEASUREMENT NOTES: SF1 (NR5A1) inverse agonists, counter-screen for LRH-1 inverse agonist project, cell-based, luminescence, high throughput (AID 651614);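 note: cells cotransfected with StAR promoter reporter and SF1 expression vector; 0% = vehicle on cells with receptor and 100% = vehicle on cells lacking receptor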
# CONDITION PARAMETERS: cell-based SF1 luciferase reporter, at 3.6 µM, hits give high values
Calls of active or inactive are those of the source. Cut-off read from the data, not from the text of the source: active = inhibition above about 44%; inactive = the rest.

molecule_smiles=C=CCOc1ccccc1CN(C(=O)CCl)c1ccc2c(c1)OCO2 result="53.5% (active)"

*Q* Need inhibition of `O=C(c1ccc([N+](=O)[O-])s1)N1CCN(c2ncccn2)CC1` , thanks.
*A* 41.5% (inactive)

*Q* Need inhibition of `COc1ccc(NC(=O)CSC2=NCCN2)cc1` , thanks.
*A* 15.1% (inactive)

###

# MEASUREMENT NOTES: VP16 transactivation reporter inhibitors, counter-screen for LRH-1 inverse agonist project, cell-based, luminescence, high throughput (AID 651615)
# CONDITION PARAMETERS: Gal4-VP16 luciferase reporter cells, at 3.6 µM
The source made the active and inactive calls. Cut-off read from the data, not from the text of the source: active = inhibition above about 33%; inactive = the rest.
Response enum: t for active, f for inactive

molecule_smiles=S=C(NN=C(c1ccccc1)c1ccccn1)N(Cc1ccccn1)Cc1ccccn1 class_assignment=t
molecule_smiles=CC(=O)Nc1ccc(NC(=O)COC(=O)c2ccc([N+](=O)[O-])o2)cc1 class_assignment=f
molecule_smiles=Nc1nc2ccc(Cl)cc2cc1C(=O)NCc1ccc(Oc2ccccc2)cc1 class_assignment=t

Consider the additional molecule presented here.
*Q* Could you check what this test reported for `CCCN(CC(=O)Nc1ccc(C(C)=O)cc1)CC(=O)Nc1ccccc1C` ?
*A* f

###

# TARGET OR SYSTEM: Nuclear receptor coactivator 2 (Homo sapiens)
# MEASUREMENT NOTES: SRC2 coactivator transcriptional activity inhibitors, confirmation, cell-based, luminescence, HEK293, triplicate (AID 652008);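 note: 0% = DMSO-treated cells and 100% = Gossypol at 36 µM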
# CONDITION PARAMETERS: HEK293 GAL4-SRC2 luciferase reporter, at 8.9 µM, hits give high values
VALUE KIND: inhibition (%)
Value expressed in %; do not type the unit.

compound=COc1cc(OC)c(-c2c3cc(O)c(=O)cc-3oc3cc(O)c(O)cc23)cc1OC value_kind=inhibition unit_spec=% measured_number=3.62
compound="Cc1cc(C(=O)COC(=O)c2ccccc2O)c(C)n1CC1CCCO1 (stereo not given)" value_kind=inhibition unit_spec=% measured_number=96.3

*Q* Need inhibition of `CCN(CC)S(=O)(=O)c1ccc(NC(=O)Nc2cccc(C(F)(F)F)c2)cc1` , thanks.
*A* 14

*Q* Need inhibition of COc1ccc(OC)c(C2C(C#N)=C(N)Oc3c2c(C)nn3-c2cccc(Cl)c2)c1 (stereo not given) , thanks.
*A* 4.46

*Q* Need inhibition of `Brc1cccc(-c2cnc3n2CCCCC3)c1` , thanks.
*A* 29.2
